B1: VH:VL chains; a variant is named by its letters at X, in order (parent)
chain 1: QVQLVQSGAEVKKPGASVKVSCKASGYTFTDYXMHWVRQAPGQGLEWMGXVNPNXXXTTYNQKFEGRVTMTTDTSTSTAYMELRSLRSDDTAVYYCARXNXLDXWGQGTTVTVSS
chain 2: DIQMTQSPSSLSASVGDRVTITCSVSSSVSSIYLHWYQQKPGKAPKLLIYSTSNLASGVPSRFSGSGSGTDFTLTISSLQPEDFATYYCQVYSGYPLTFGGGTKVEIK

- Variants of: B1
- PROTOCOL: yeast display scFab, FACS + sequencing
EXPERIMENTAL_ENDPOINT: non-specific binding call

* YTTRGAGA | no binding
* SKERGDWY | no binding
* VRGKGDWV | no binding
* YGAGDFGA | binds
* SKKRGAWY | binds

Below are 7 variants. Give each one its non-specific binding call.
1. YRKGGFSS
2. FRRGGAWY
3. YAGGDFAY
4. YTGATAGA
5. YRGGDSAS
6. STGKGSGV
7. YRGKGYVV

1. binds
2. binds
3. no binding
4. binds
5. no binding
6. no binding
7. binds

Below are 3 variants. Give each one its non-specific binding call.
1. YEKGGAWS
2. ARRRGAAA
3. SEARSDGS

["binds", "binds", "no binding"]
